Species: Rattus norvegicus
Test name: ED50 value was measured as dose required to produce a half-maximal reduction of Dopa accumulation in limbic area of reserpinized rat brain.
Format: functional
Cond: Rattus norvegicus, Brain; read-out: ED50
Test readout: ED50 (µmol/kg)
Give your result in µmol/kg as a bare value.

Reference set, count: 6
- Molecule: "CCCN1CCCC2c3ccc(O)cc3CCC21 (stereo not drawn)"
  ED50 / µmol/kg: 0.54
- Molecule: "CCCN(CCC)C1CCc2c(O)cccc2C1 (stereo not drawn)"
  ED50 / µmol/kg: 0.011
- Molecule: "CN1CCc2cccc3c2[C@H]1Cc1ccc(O)c(O)c1-3"
  ED50 / µmol/kg: 0.19
- Molecule: "CCCN(CCC)C1CCc2ccc(O)cc2C1 (stereo not drawn)"
  ED50 / µmol/kg: 0.027
- Molecule: "CCCN1CCCC(c2cccc(O)c2)C1 (stereo not drawn)"
  ED50 / µmol/kg: 3.6
- Molecule: "CCCN1CCCC2c3cccc(O)c3CCC21 (stereo in doubt; 7)"
  ED50 / µmol/kg: 0.13

Record request: ED50 value, item CCCCN1CCCC2c3cccc(O)c3CCC21 (stereo not drawn) 0.08

Record request: ED50 value, item "CCCN(CCC)[C@@H]1CCc2ccc(O)cc2C1" 0.18
